- experimental_target: CDK9 (human) (UniProt P50750)
- Sequence (P50750 whole entry, looked up): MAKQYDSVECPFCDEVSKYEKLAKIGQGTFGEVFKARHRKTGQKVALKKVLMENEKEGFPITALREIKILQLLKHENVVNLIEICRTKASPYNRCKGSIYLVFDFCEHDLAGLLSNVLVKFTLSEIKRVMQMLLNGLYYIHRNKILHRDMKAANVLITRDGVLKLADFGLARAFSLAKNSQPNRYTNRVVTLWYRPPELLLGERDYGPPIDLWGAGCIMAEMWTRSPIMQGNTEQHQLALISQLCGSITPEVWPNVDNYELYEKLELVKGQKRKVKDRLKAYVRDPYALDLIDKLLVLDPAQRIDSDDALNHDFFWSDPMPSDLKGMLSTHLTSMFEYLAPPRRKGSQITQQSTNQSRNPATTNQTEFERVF
- procedure_text: Caliper, Mobility shift assay off-chip
- details: compound 0.2 µM
In this section, each of the compounds is paired with its reported inhibition.
Be sure to follow the number with its unit.

These recorded examples may help you get a feel for the data.
INSERT INTO measurements (smiles_input, observed_result) VALUES
  ('COc1cc2c(Oc3ccc4[nH]c(C)cc4c3F)ncnc2cc1OCCCN1CCCC1', '-3.3%'),
  ('CCN(CC)CCNC(=O)c1c(C)[nH]c(/C=C2\C(=O)Nc3ccc(F)cc32)c1C', '-0.1%'),
  ('Cc1ccc(Nc2nccc(N(C)c3ccc4c(C)n(C)nc4c3)n2)cc1S(N)(=O)=O', '5.1%');

Now take the following compound into account.
Request: Fill in the blank: the reported inhibition of CNC(=O)c1cc(Oc2ccc(NC(=O)Nc3ccc(Cl)c(C(F)(F)F)c3)cc2)ccn1 is ____.
Result: -6.7%

###

- experimental_target: PAK1 (human)
- procedure_text: Caliper, Mobility shift assay off-chip
- details: compound 0.02 µM
In this section, each of the molecules is paired with its reported inhibition.
Number only, in %; omit the unit.

INSERT INTO measurements (smiles_input, observed_result) VALUES
  ('Cc1ccc(Nc2nccc(N(C)c3ccc4c(C)n(C)nc4c3)n2)cc1S(N)(=O)=O', -3.6);

Request: Fill in the blank: the reported inhibition of COc1cc2c(Oc3ccc4[nH]c(C)cc4c3F)ncnc2cc1OCCCN1CCCC1 is ____.
Result: -2.7

Request: Lookup CNC(=O)c1cc(Oc2ccc(NC(=O)Nc3ccc(Cl)c(C(F)(F)F)c3)cc2)ccn1
Result: -0.9

Request: Lookup CNC(=O)c1ccccc1Sc1ccc2c(/C=C/c3ccccn3)n[nH]c2c1
Result: -1.5

###

- experimental_target: PRKAA1 (human)
- procedure_text: Caliper, Mobility shift assay off-chip
- details: compound 0.2 µM
In this section, each of the compounds is paired with its reported inhibition.

These recorded examples may help you get a feel for the data.
INSERT INTO results (smiles_input, observed_result) VALUES
  ('COc1cc2c(Oc3ccc4[nH]c(C)cc4c3F)ncnc2cc1OCCCN1CCCC1', '7.1%'),
  ('CCN(CC)CCNC(=O)c1c(C)[nH]c(/C=C2\C(=O)Nc3ccc(F)cc32)c1C', '62.6%'),
  ('Cc1ccc(Nc2nccc(N(C)c3ccc4c(C)n(C)nc4c3)n2)cc1S(N)(=O)=O', '-10.1%');

Now take the following compound into account.
Request: Fill in the blank: the reported inhibition of CNC(=O)c1cc(Oc2ccc(NC(=O)Nc3ccc(Cl)c(C(F)(F)F)c3)cc2)ccn1 is ____.
Result: 10.7%

###

In this section, each of the molecules is paired with its reported inhibition.
- experimental_target: NEK9 (human)
- procedure_text: Caliper, Mobility shift assay off-chip
- details: compound 0.2 µM

These recorded examples may help you get a feel for the data.
INSERT INTO results (smiles_input, observed_result) VALUES
  ('CNC(=O)c1cc(Oc2ccc(NC(=O)Nc3ccc(Cl)c(C(F)(F)F)c3)cc2)ccn1', '-5.9%'),
  ('CCN(CC)CCNC(=O)c1c(C)[nH]c(/C=C2\C(=O)Nc3ccc(F)cc32)c1C', '0%'),
  ('Cc1ccc(Nc2nccc(N(C)c3ccc4c(C)n(C)nc4c3)n2)cc1S(N)(=O)=O', '1.4%');

Now take the following molecule into account.
Request: Fill in the blank: the reported inhibition of COc1cc2c(Oc3ccc4[nH]c(C)cc4c3F)ncnc2cc1OCCCN1CCCC1 is ____.
Result: -2.9%
